FYI, the data here is from paper PMC9482650.

# tgt: T1, SHANK1, Q9Y566
# T1 sequence (Q9Y566 658-767, limits assumed, looked up): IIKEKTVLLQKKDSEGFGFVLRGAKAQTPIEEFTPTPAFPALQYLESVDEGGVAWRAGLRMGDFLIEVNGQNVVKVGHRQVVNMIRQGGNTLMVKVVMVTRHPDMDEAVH
# assay-explanation: holdup assay
# Parameters: key: below the threshold = too weak to quantify, mostly under pKd 3.1 to 4
# conditions-used: plain residues with an end cap or a label only (N-terminal biotin on a linker: ttds)
property-label: pKd
Give bare numbers.

- binder: "STLTIFETAL [ABCC4, O15439]"
  property-label: "pKd"
  quantitative-readout: 5.1

Quick one: give me pKd for each item below, same order please.
1. SVWLRKETRV [CYSLTR2, Q9NS75]
2. GQDSREETQL [KCNT2, Q6UVM3]
3. IDNDTESTAL [ARHGAP17, Q68EM7]
4. IYVPEAQTRL [DLGAP4, Q9Y2H0]
5. VLRLQSETSV [VANGL1, Q8TAA9]
6. SSRTRRETQL [HPV16-E6, P03126]
7. QSARYRDTEL [TJP2, Q9UDY2]

Out:
3.51
4.67
5.53
5.54
3.77
3.68
3.74

# pKd (binder: RSLEEEESQL [GRASP, Q7Z6J2] ) is 5.1
